molecular target: Indoleamine 2,3-dioxygenase 1 (Homo sapiens); test: Inhibition of IDO1 in IFN gamma-stimulated human HeLa cells measured after 48 hrs by fluorescence based microplate reader assay; assay type: cell-based
Sequence (P14902 whole entry): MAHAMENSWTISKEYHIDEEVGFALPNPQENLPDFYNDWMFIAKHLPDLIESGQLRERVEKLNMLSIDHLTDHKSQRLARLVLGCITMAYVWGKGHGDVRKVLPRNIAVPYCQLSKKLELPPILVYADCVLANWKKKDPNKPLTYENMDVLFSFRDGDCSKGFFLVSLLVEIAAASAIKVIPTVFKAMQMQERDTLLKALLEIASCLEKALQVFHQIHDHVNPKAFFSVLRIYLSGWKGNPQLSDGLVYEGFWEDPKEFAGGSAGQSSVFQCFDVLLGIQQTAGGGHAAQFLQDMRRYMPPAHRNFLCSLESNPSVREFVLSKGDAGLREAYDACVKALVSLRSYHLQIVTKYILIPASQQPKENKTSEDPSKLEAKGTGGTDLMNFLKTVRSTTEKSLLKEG
measuredEndpoint: pIC50
Just so you know, pIC50 here is -log10 of the concentration in molar units; reply with that number alone.

For the molecule shown here, O=C(Nc1ccc(F)cc1)C1(c2ccc(-c3cnc(C(F)(F)F)cc3CO)cc2)COC1 , give the reported pIC50.
8.70

Further, for CCCNC(=O)C1(c2ccc(-c3ccc(C)nc3)cc2)CCC1 ?
5.93

Same again, this time with CC(C)(O)c1cc(C(F)(F)F)ncc1-c1ccc(C2(C(=O)Nc3ccc(F)cc3)COC2)cc1
8.52

Item: CCCNC(=O)C1(c2ccc(-c3cccnc3)cc2)CCC1
5.10

Data origin, for the record: ChEMBL document CHEMBL5154775
